# System: DU-145 prostate
# testDescription: NCI tumour cell line growth inhibition, 48 h
readoutLabel: TGI

> print(dat)
                                    molecule  measvalue
 1  CC1=CC(=O)CC2(C)CCC(C(C)CC(=O)CC(C)C)CC12 (stereo not drawn)   > 100 µM
 2  CC/C(Cl)=N\OC(=O)Nc1ccc(F)c([N+](=O)[O-])c1    36.9 µM
 3  O=C1CC(Sc2nc3ccc(I)cc3c(=O)n2Cc2ccccc2)C(=O)NN1 (stereo not drawn)    34.8 µM
 4  Cn1ccnc1Sc1ccc(C=Nc2ccc3nc(SCC(=O)NC4CCCCC4)sc3c2)cc1[N+](=O)[O-]   > 100 µM
 5  CCCCCc1ccc(S(=O)(=O)Nc2cc(-c3csc(NC(C)=O)n3)ccc2N2CCN(C)CC2)cc1     9.8 µM
 6  O=C(O)c1ccc2c(c1)CC1(C2)Cc2cc3c(cc2C1=O)CCC3 (stereo not drawn)   > 100 µM
 7    N#Cc1c(C#N)c(-c2ccccc2)n(-c2ccccc2)c1N   > 100 µM
 8  Cc1ncc([N+](=O)[O-])n1CCNS(=O)(=O)CCCn1ncnc1[N+](=O)[O-]   > 100 µM
 9  CC1(C)[C@@H](Cn2cnc3c(Cl)nc(N)nc32)CC[C@@]1(C)CO   > 100 µM
10   O=C(CSC(c1ccccc1)c1ccccc1)N/N=C/c1ccco1  > 4.92 µM
11  CC1C(=O)OC2CC[N+]3([O-])CC=C(COC(=O)C(C)(O)C1(C)O)C23 (stereo not drawn)   > 100 µM
12  COc1ccc2c(c1)C(C)Cc1c(ncnc1-n1cnc3cc(C)ccc31)N2C (stereo not drawn)    12.1 µM
13  C[C@]12CC[C@@H]3c4ccc(O)c([N+](=O)[O-])c4CC[C@H]3[C@@H]1CC[C@@H]2NS(=O)(=O)c1cccc(Br)c1    12.4 µM

###

# Tested on: M19-MEL melanoma
# testDescription: NCI tumour cell line growth inhibition, 48 h
Rule: Criterion met for TGI not less than 20 µM, Criterion not met for anything less.

> print(dat)
                                    molecule        answerlabel
 1  CC1(C)OC2CC(=O)OCC23C1CC(=O)C1(C)C3CCC2(C)C(c3ccoc3)OC(=O)C3OC321 (stereo unspecified)      Criterion met
 2  CC(C(=O)n1c2ccccc2c2ccccc21)N(c1ccccc1)c1ccccc1 (stereo unspecified)      Criterion met
 3  Cc1cc(C(C)(C)C)cc(Cc2cc(C(C)(C)C)cc(Cc3cc(C(C)(C)C)cc(C)c3O)c2O)c1O  Criterion not met
 4  Cc1cccc(C(C)C)c1NC(=O)C(=O)C(C(=O)c1ccccc1F)C1OC(=O)c2ccccc21 (stereo unspecified)      Criterion met
 5        [F][Sn]([F])([c]1ccccc1)[c]1ccccc1  Criterion not met
 6  CCN(CC)CCNC(=O)c1ccc(C)c(OCc2ccccc2)c1[N+](=O)[O-]      Criterion met
 7  C=CCn1c2c(sc1=S)C(S)N=CN2 (stereo unspecified)      Criterion met
 8  CC1=C(c2cc(C(=O)Nc3ccc(Cl)cc3)nc(=S)[nH]2)Sc2ccccc2N1      Criterion met
 9  COc1cc2c(c(O)c1O)-c1ccc(OC)c(=O)cc1C(NC(C)=O)CC2 (stereo unspecified)      Criterion met
10                 O=S1(=O)OCCOS(=O)(=O)C1Cl      Criterion met
11  COc1c(O)c(O)cc2c1-c1ccc(OC)c(=O)cc1C(NC(C)=O)CC2 (stereo unspecified)      Criterion met
